# assaySystem: human EGFR on cells (A431, NCI-H292, NCI-H322, NCI-H441) (human, UniProt P00533 25-1210)
# assayInfo: cell-based or functional assay
measuredMetric: IC50 of inhibition of EGF-stimulated EGFR phosphorylation, NCI-H292 cells

Some binders with known IC50 of inhibition of EGF-stimulated EGFR phosphorylation, NCI-H292 cells results, for comparison:
ECB147v5-PEG24 (designed binder, PEG24-maleimide on the engineered cysteines) MLPAPKNLVVSEVTEDSARLSWDDPWAFYESFLIQYQESEKVGEAIVLTVPGSERSYDLTGLCPGTEYTVSIYGVHNVYKDTNMRGLPLSAIFTTAPAPAPAPAPLPAPKNLVVSRVTEDSARLSWTAPDAAFDSFWIRYFEFLGSGEAIVLTVPGSERSYDLTGLCPGTEYVVNIMSVKGGSISPPLSAIFTTAPAPAPAPAPLAEAKVLANRELDKYGVSDYYKNLINNAKTVEGVKALLDEILAALP : 0.9 nM
ECB147v7-PEG24 (designed binder, PEG24-maleimide on the engineered cysteines) MLPAPKNLVVSEVTEDSARLSWDDPWAFYESFLIQYQESEKVGEAIVLTVPGSERSYDLTGLKPGTEYTVSIYGVHNVYKDTNMRGLPLSAIFTTAPCPAPAPAPLPAPKNLVVSRVTEDSARLSWTAPDAAFDSFWIRYFEFLGSGEAIVLTVPGSERSYDLTGLKPGTEYVVNIMSVKGGSISPPLSAIFTTAPCPAPAPAPLAEAKVLANRELDKYGVSDYYKNLINNAKTVEGVKALLDEILAALP : 1.4 nM
ECB147v6-PEG24 (designed binder, PEG24-maleimide on the engineered cysteine) MLPAPKNLVVSEVTEDSARLSWDDPWAFYESFLIQYQESEKVGEAIVLTVPGSERSYDLTGLCPGTEYTVSIYGVHNVYKDTNMRGLPLSAIFTTAPAPAPAPAPLPAPKNLVVSRVTEDSARLSWTAPDAAFDSFWIRYFEFLGSGEAIVLTVPGSERSYDLTGLKPGTEYVVNIMSVKGGSISPPLSAIFTTAPAPAPAPAPLAEAKVLANRELDKYGVSDYYKNLINNAKTVEGVKALLDEILAALP : 1.4 nM

With those in mind, consider the next binder.
May I ask what IC50 of inhibition of EGF-stimulated EGFR phosphorylation, NCI-H292 cells has been recorded for ECB147v3-PEG24 (designed binder, PEG24-maleimide on the engineered cysteines) MLPAPKNLVVSEVTEDSARLSWDDPWAFYESFLIQYQESEKVGEAIVLTVPGSERSYDLTGLCPGTEYTVSIYGVHNVYKDTNMRGLPLSAIFTTAPCPAPAPAPLPAPKNLVVSRVTEDSARLSWTAPDAAFDSFWIRYFEFLGSGEAIVLTVPGSERSYDLTGLCPGTEYVVNIMSVKGGSISPPLSAIFTTAPCPAPAPAPLAEAKVLANRELDKYGVSDYYKNLINNAKTVEGVKALLDEILAALP ?
1.6 nM
